Here, molecules appear alongside IC50 reported for Tyrosine-protein kinase JAK2 (Homo sapiens, UniProt O60674) in the literature.
measured endpoint: IC50 (nM)

molecule	measured endpoint	uom	modifier sign	result value
COc1cc(Nc2nccc(Nc3cccnc3-c3ccccn3)n2)ccc1N1CCN(C)CC1	IC50	nM	>	1000
N#Cc1cc(-c2ncnc(Nc3ccc(N4CCN(C5COC5)CC4)cc3)n2)ccc1O[C@H]1CCN(C(=O)c2[nH]nc(N)c2Cl)C[C@H]1F	IC50	nM	=	75
N#CCC(C1CC1)n1cc(-c2ccnc(Nc3ccc(C(=O)N4CCCC4)cc3)n2)cn1 (racemic)	IC50	nM	<	100
CC[C@@H]1C[C@H](CC#N)CN1n1cnc2cnc3[nH]ccc3c21	IC50	nM	=	127
Cc1cc(OC2CCC(CC#N)(n3cc(-c4ccnc(Nc5ccc(N6CCOCC6)cc5)n4)cn3)CC2)no1 (single isomer, unassigned)	IC50	nM	<	100
CN1CCC(N2Cc3cc4[nH]c(-c5c(NC[C@@H](O)COc6c(F)cc(F)cc6Br)cc[nH]c5=O)nc4cc3C2=O)CC1	IC50	nM	<	500
Cn1ccc(Nc2nccc(-c3cnn(C(CC#N)CC4CCN(C(=O)c5ccc(F)cc5F)CC4)c3)n2)n1 (racemic)	IC50	nM	<	100
C[C@@H]1CN(c2ccc(Nc3ncnc(-c4ccc(O[C@H]5CCN(C(=O)[C@@H]6CCC(=O)N6)C[C@H]5F)c(C#N)c4)n3)cc2)CCN1C1COC1	IC50	nM	=	363
CN1CCC(c2ccc(Nc3ncnc(-c4ccc(O[C@H]5CCOC[C@H]5F)c(C#N)c4)n3)cc2)CC1	IC50	nM	=	453
Cc1cc(Nc2ncnc(-c3ccc(O[C@H]4CCN(C(=O)CCO)C[C@H]4F)c(C#N)c3)n2)ccc1N1CCN(C2COC2)CC1	IC50	nM	=	88
C[C@H]1CN(C)CCN1c1ccc(Nc2ncnc(-c3ccc(O[C@H]4CCN(C(=O)[C@@H](O)CO)C[C@H]4F)c(C#N)c3)n2)cc1	IC50	nM	=	355
CC1(O)CCN(c2ccc(Nc3ncnc(-c4ccc(OC5CCOCC5)c(C#N)c4)n3)cc2)C1 (centres unmarked)	IC50	nM	>	1000

====

Reported IC50 on Tyrosine-protein kinase JAK2 (Homo sapiens, UniProt O60674) for assorted molecules, compiled from publications.

item smiles	tested system	IC50
CN(c1ncccc1Cn1ccc2cnc(Nc3cccc(NC(=O)C(C)(C)O)c3)nc21)S(C)(=O)=O	Tyrosine-protein kinase JAK2 (Homo sapiens, UniProt O60674)	< 20 nM
CCC(CC)n1cc(-c2nc(-c3cnn(CC4(O)CCOCC4)c3)cn3nccc23)cn1	Tyrosine-protein kinase JAK2 (Homo sapiens, UniProt O60674)	10 to 100 nM
CCS(=O)(=O)N1CC(CC#N)(n2cc(-c3nc(Nc4cnn(C)c4)nc4cc(Cl)sc34)cn2)C1	Tyrosine-protein kinase JAK2 (Homo sapiens, UniProt O60674)	50 to 500 nM
Cc1ccc(NC(=O)c2cc(NCCN3CCOCC3)cc(C(F)(F)F)c2)cc1-c1ccc2c(c1)[nH]c1ncncc12	Tyrosine-protein kinase JAK2 (Homo sapiens, UniProt O60674)	≤ 500 nM
N#CCC1(n2cc(-c3ncnc4[nH]ccc34)cn2)CN(C2CCN(C(=O)c3ccc(-c4nc5ccccc5o4)c(F)c3)CC2)C1	Tyrosine-protein kinase JAK2 (Homo sapiens, UniProt O60674)	> 100 nM
CCN1CCN(Cc2cc(NC(=O)c3ccc(C)c(-c4ccc5nc(NC(=O)C6CC6)sc5n4)c3)cc(C(F)(F)F)c2)CC1	Tyrosine-protein kinase JAK2 (Homo sapiens, UniProt O60674)	660 nM
CN(C)Cc1cc(C(=O)N2CCC(N3CC(CC#N)(n4cc(-c5ncnc6[nH]ccc56)cn4)C3)CC2)cc(C(F)F)c1	Tyrosine-protein kinase JAK2 (Homo sapiens, UniProt O60674)	10 to 50 nM

====

Assay read-out IC50 on Tyrosine-protein kinase JAK2 (Homo sapiens, UniProt O60674); records merged from the literature.

molecule	IC50
NC(=O)c1cnc(Nc2ccc3c(c2)NC[C@H](O)CO3)nc1NCCCO	10 to 100 nM
CCC(=O)c1cnc(Nc2cnc(O[C@H]3CCCN(C)C3)cn2)cc1Nc1cccc(-c2ncn(C)n2)c1OC	≥ 500 nM
N#CCC1(n2cc(-c3c(F)cnc4[nH]ccc34)cn2)CN(C2CCN(C(=O)c3ccc(F)c(C#N)c3)CC2)C1	10 to 50 nM
CN(c1ncccc1Cn1ccc2cnc(Nc3ccc4c(c3)CC(=O)N4)nc21)S(C)(=O)=O	< 20 nM
N#CCC1(n2cc(-c3ncnc4[nH]ccc34)cn2)CN(C2CCN(C(=O)Nc3ncccc3C(F)(F)F)CC2)C1	10 to 50 nM
CC1CCOCc2cc(ccc2OCC2CCOC2)Nc2nccc(n2)-c2ccc(cc2[N+](=O)[O-])C(=O)NC1 (stereo not shown)	1000 to 10000 nM
COc1cc(N2CCC(O)CC2)ccc1Nc1ncc2ccn(S(=O)(=O)c3cccc4cccnc34)c2n1	> 1000 nM

====

Across several publications, the following pIC50 results were reported for UniProt O60674.
pIC50: −log10 of the molar value.

compound	pIC50
CCCS(=O)(=O)N[C@H]1C[C@@H](n2cnc3cnc4[nH]ccc4c32)C1	5.96
COc1ccc(-c2cc(C(N)=O)c3[nH]c4cc(N5CCN(C)CC5)ccc4c3n2)cc1F	9.00
O=C(Nc1nc2cccc(-c3ccc(N4CCOCC4)cc3)n2n1)C1CC1	5.75
Cn1cnc(Nc2ncc(Cl)c(NC3CC4CN(C(=O)CC#N)CC4C3)n2)c1 (stereo not shown)	6.43

====

Below are log10 of IC50 measurements against Tyrosine-protein kinase JAK2 (Homo sapiens) drawn from the literature.
measured endpoint: log10 of IC50 (log10 of the value in nM)

molecule	log10 of IC50
CCn1cc(Nc2ncnc(-c3ccc(O[C@H]4CCN(C(=O)[C@H](C)O)C[C@H]4F)c(C#N)c3)n2)cn1	2.82
NC(=O)c1cc(-c2ccc(OCCN3CCOCC3)c(Cl)c2)nc2c1[nH]c1cc(N3CCOCC3)ccc12	0.00
N#Cc1cc(-c2ncnc(Nc3cnn(C4CCNCC4)c3)n2)ccc1O[C@H]1CCCC[C@H]1F (racemic)	2.19
CCc1cc(O)c(F)cc1-c1cc2[nH]nc(C(=O)NC)c2c(NCc2ccccc2N(C)S(C)(=O)=O)n1	0.77
Cn1cc(Nc2ncc(Cl)c(NC3CC4CN(CC(F)(F)F)CC4C3)n2)cn1 (stereo not drawn)	0.90
Cc1ccc(NC(=O)c2cccc(C(F)(F)F)c2)cc1N1CCc2nc(Nc3ccc(CC(=O)N4CCN(C)CC4)cc3)ncc2C1=O	1.79

====

Dear all, I have gathered published IC50 values for Tyrosine-protein kinase JAK2 (Homo sapiens, UniProt O60674); the list follows.

item smiles	IC50
Cc1cnc2nc1NCCCCCCNC(=O)c1ccc(cc1F)-c1cnc(F)c(c1)N2	101 to 1000 nM
CCC(=O)c1cnc(Nc2ccc(CNC)nn2)cc1Nc1cccc(-c2ncn(C)n2)c1OC	≥ 500 nM
Nc1cc2ccc1-c1ccnc(n1)Nc1cc(F)c(F)c(c1)COCCCCNC2=O	1000 to 10000 nM
CC(C)NC(=O)c1ccc(N2CC(CC#N)(n3cc(-c4ncnc5[nH]ccc45)cn3)C2)cn1	≤ 10 nM

====

pIC50: −log10 of the molar value.
Field: pIC50. System: UniProt O60674. Provenance: assorted publications.

molecule	pIC50
Cc1ccc(OCC(O)CNc2cc[nH]c(=O)c2-c2nc3cc4c(cc3[nH]2)C(=O)N(C2CCN(C)CC2)C4=O)c(C)c1 (stereo not drawn)	5.30 to 6.30
CN1CCN(C2CCOCC2)c2nccc3[nH]nc1c23	< 4.52
Cc1cnc(Nc2ccc(-c3cnco3)cc2)nc1-c1cnn(C(CC#N)C2CCCC2)c1 (racemic)	> 7.00
CCC(CC)n1cc(-c2nc(-c3cnn(CC(C)(C)CO)c3)cn3nccc23)cn1	7.00 to 8.00
CCS(=O)(=O)N1CCC(CC(CC#N)n2cc(-c3nc(Nc4ccccc4)ncc3C)cn2)CC1 (racemic)	> 7.00
CN(c1ncnc2[nH]ccc12)N1CCC[C@@H](C(=O)NCC(F)(F)C(F)(F)F)C1 (single isomer, unassigned)	< 6.00
Fc1ccc2cc1COC/C=C/COCc1cc(ccc1OCCN1CCCC1)Nc1nccc-2n1	≥ 6.00
C[C@H](NC(=O)c1cnc(N2CC(CC#N)(n3cc(-c4ncnc5[nH]ccc45)cn3)C2)cn1)C(F)(F)F	≥ 8.00
CCC(CC)n1cc(-c2nc(-c3cnn(C4CN(C(=O)[C@@H](C)O)C4)c3)cn3nccc23)cn1	7.00 to 8.00
NC(=O)c1cnc(Nc2ccc3c(c2)NC[C@H](OCC2CCCO2)CO3)nc1NC1CC1 (stereo partly drawn)	7.00 to 8.00
Cc1ccc(NC(=O)NC2CCCC2)cc1N1CCc2nc(Nc3ccc(OCCN4CCCC4)cc3)ncc2C1	8.40
COC1CN(S(=O)(=O)NC23CC(n4cnc5cnc6[nH]ccc6c54)(C2)C3)C1	6.49
N#Cc1cc(-c2ncnc(Nc3cccc(N4CCN(C5COC5)CC4)c3)n2)ccc1OC1CCOCC1	< 6.00
Cn1ccc(S(=O)(=O)N2CCC(CC(CC#N)n3cc(-c4ccnc(Nc5ccc(-n6cccn6)cc5)n4)cn3)CC2)n1 (racemic)	> 7.00
CC(=O)N1CCC(CC#N)(n2cc(-c3nc(-c4cnn(C)c4)cc4nccn34)cn2)C1 (stereo not drawn)	6.00 to 7.00
